Study Target: T1, ZFP SBS#849 (synthetic)
T1 chain: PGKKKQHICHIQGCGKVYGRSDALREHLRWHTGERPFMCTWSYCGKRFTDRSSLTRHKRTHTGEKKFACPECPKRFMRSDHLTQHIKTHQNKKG
Assay Protocol: EMSA
Experimental Context: tags: MBP fusion
Parameter: pKd
Here pKd is given on a logarithmic scale as minus log10 of the concentration in mol/L.

pKd for GGGGCCCTGG (dsDNA) DNA 1: GGGGCCCTGG DNA 2: CCAGGGCCCC is 7.54

Data origin, for the record: patent US20030068675
